# test.name: absorption spectrum (maximum absorption wavelength, molar extinction coefficient)
# Type: physicochemical
metric.name: maximum absorption wavelength (nm)
One number for each entry, in nm.

Solved cases below.
compound	maximum absorption wavelength (nm)
COCCOCCOCCOCCOCCOCCOC(=O)C1CCCCC1Nc1c(O)c2c(=O)cc(OC)c3c4c(OC)cc(=O)c5c(NC6CCCCC6C(=O)OCCOCCOCCOCCOCCOCCOC)c(OC)c6c(c(c1C=C(C)C6C(C)=O)c23)c54 (stereo not drawn) [HB-16b-PEG6]	624
COc1c(O)c2c(=O)cc(OC)c3c4c(OC)cc(=O)c5c(NC6CCC(C(=O)O)CC6)c(NC6CCC(C(=O)O)CC6)c6c(c(c1C(C(C)=O)C(C)=C6)c23)c54 (stereo not drawn) [HB-14a]	625

Input: Which value of maximum absorption wavelength has been reported for COc1c2c3c4c(c(NC(CC(=O)O)C(=O)O)c(=O)c5c(NC(CC(=O)O)C(=O)O)cc(OC)c(c6c(OC)cc(O)c(c1=O)c63)c54)C=C(C)C2C(C)=O (stereo not drawn) [HB-27c] in the records?
Output: 625
